Reported IC50 values for the following compounds.
Target: human melanocortin-4 receptor (hMC-4R) (Homo sapiens, UniProt P32245)
Construct: expressed in transfected cells; host or cells: HEK293 (membrane preparations)
Sequence (P32245 whole entry): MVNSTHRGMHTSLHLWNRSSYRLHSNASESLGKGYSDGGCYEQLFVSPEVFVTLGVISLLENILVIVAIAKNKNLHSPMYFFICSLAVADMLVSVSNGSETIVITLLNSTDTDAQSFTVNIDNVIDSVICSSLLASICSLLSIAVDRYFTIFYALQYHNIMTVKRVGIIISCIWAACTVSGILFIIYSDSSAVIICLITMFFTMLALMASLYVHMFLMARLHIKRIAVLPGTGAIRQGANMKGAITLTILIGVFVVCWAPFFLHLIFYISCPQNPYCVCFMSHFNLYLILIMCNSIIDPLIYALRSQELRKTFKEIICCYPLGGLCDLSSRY
Assay: hMC-4R binding assay (fluorescence polarization, competition with fluorescence labeled NDP-alpha-MSH)
Conditions: HEK293 cell membrane preparations expressing human melanocortin receptors
Answer format: numeric, nM implied, no suffix.

As a guide, the following entries are already answered.
1) CN(C)[C@H]1CCN(C(=O)N[C@H](Cc2ccc(Cl)cc2Cl)C(=O)N2CCC(c3ccccc3OCCN3CCCC3)CC2)C1	3
2) O=C(N[C@H](Cc1ccc(Cl)cc1Cl)C(=O)N1CCC(c2ccccc2CCN2CCC(F)CC2)CC1)N1CCCC1	9.6
3) O=C(N[C@H](Cc1ccc(Cl)cc1Cl)C(=O)N1CCC(c2ccccc2OCCN2CCCC2)CC1)N1CCC(F)(F)C1	4.4
4) O=C(N[C@H](Cc1ccc(Cl)cc1Cl)C(=O)N1CCC(c2ccccc2CCCN2CCCC2)CC1)N1CCOCC1	5.3

# context switch: different compound, same IC50
Lab book: IC50 of O=C(N[C@H](Cc1ccc(Cl)cc1Cl)C(=O)N1CCC(c2ccccc2OCCN2CCCC2)CC1)N1CCCC1 noted as 3.7
